System: RPMI-8226
Assay: NCI tumour cell line growth inhibition, 48 h
Calls of active or inactive are those of the source. Cut-off read from the data, not from the text of the source: active = GI50 up to about 1.1 µM and inactive = higher.
Permitted responses: True = active, False = inactive

{"columns": ["COMPOUND", "GROUP"],
 "data": [
  ["CCCNCC(=O)O[C@]1(CC)C(=O)OCc2c1cc1n(c2=O)Cc2cc3ccccc3nc2-1", "True"]
]}

Request: Could you please tell me the result logged for O=C1C(Cl)C(c2cccc(O)c2)N1n1cnc2ccccc2c1=O (stereo not drawn) in this assay?
Response: False

Request: Param item: O=C(Cn1ccc(=O)[nH]c1=O)Nc1ccc(C(=O)O)c(O)c1
Response: False

* * *

Test system: KM12
Test: NCI tumour cell line growth inhibition, 48 h
Activity calls are given as the source filed them. Cut-off read from the data, not from the text of the source: active = GI50 up to about 1.1 µM and inactive = higher.
Permitted responses: active, inactive

{"columns": ["MOLECULE", "GROUP"],
 "data": [
  ["COC(=O)C1=C(C(=O)OC)C(C(=O)OC)C(C(=O)OC)=C1C(=O)OC", "inactive"],
  ["COC(=O)C(=O)C(C(=O)C(=O)Nc1ccccc1C(N)=O)c1nc2ccc(Cl)cc2nc1O (stereo not given)", "inactive"],
  ["N#Cc1cc(NC(=O)c2ccccc2)c(=O)n2c1[nH]c1ccccc12", "inactive"],
  ["COc1cc2cc(C(=O)N3CC(COS(C)(=O)=O)c4ccc(O)cc43)[nH]c2c(OC)c1OC (stereo not given)", "active"]
]}

Request: Could you please tell me the result logged for Fc1ccc(-c2sc(-c3cccs3)cc2Cc2cccs2)cc1 in this assay?
Response: inactive

Request: Param item: COC(C/C(=C/CO[Si](C(C)C)(C(C)C)C(C)C)C(=O)N(C(=O)OC(C)(C)C)c1ccccc1I)OC
Response: inactive

Request: Param item: CN(C)/C=N\c1cccc2c1NSN2
Response: inactive

Request: Param item: CCCN1C(=O)CN(S(=O)(=O)c2ccc(Cl)cc2)C1=O
Response: inactive

Request: Param item: COc1cccc2c1C(=N)c1c(O)c3c(c(O)c1C2=O)C[C@@](O)(C(C)=O)C[C@@H]3OC1CC(N)C(O)C(C)O1 (stereo not given in full)
Response: active

* * *

Test system: PC-3
Experiment: NCI tumour cell line growth inhibition, 48 h
The source made the active and inactive calls. Cut-off read from the data, not from the text of the source: active = GI50 up to about 1.1 µM and inactive = higher.
Here, each record is paired with measured GI50 data.

Example entries and their recorded answers appear below.
{"columns": ["COMPOUND_STRING", "GI50"],
 "data": [
  ["COc1cccc(/C=C\\c2ccc(O)cc2)c1", "11.7 µM (inactive)"],
  ["CN1C2=C(CC3=C1CC(C)(C)CC3=O)C(=O)CC(C)(C)C2", "> 100 µM (inactive)"],
  ["O=C(O)c1nc2cc(C(F)(F)F)ccc2nc1Nc1ccc(F)cc1", "10.8 µM (inactive)"]
]}

Request: Query (compound): N#Cc1ccc(OCc2ccc3nc(-c4ccccc4)c(Cl)nc3c2)cc1 ; field requested: GI50
Response: > 100 µM (inactive)

Request: Param item: C[N+](C)([O-])CCCNc1ccnc2cccc([N+](=O)[O-])c12
Response: 45.8 µM (inactive)

Request: Param item: CNC(=S)N/N=C(/C)CCC/C(C)=N/NC(=S)NC
Response: 3.71 µM (inactive)

* * *

System: LOX IMVI
Test: NCI tumour cell line growth inhibition, 48 h
Active and inactive are the calls of the source. Cut-off read from the data, not from the text of the source: active = GI50 up to about 1.1 µM and inactive = higher.
Permitted responses: active, inactive

Solved cases (5 shown):
{"columns": ["MOLECULE", "GROUP"],
 "data": [
  ["COc1ccc2[nH]c3c(C)c4c(c(C)c3c2c1)CN(C)CC4", "inactive"],
  ["CCCCN(CCCC)CCCCNc1c(C)cnc2cc(Cl)ccc12", "inactive"],
  ["CCOC(=O)CON=c1c2ccccc2ccc2ccccc12", "inactive"],
  ["C=CCn1c(=O)c2ccccc2[n+]2c(C)c(C(=O)OCC)sc12", "inactive"],
  ["CN(C)CCNC(=O)c1ccc(C(=O)NCCN(C)C)c2nc3ccccc3cc12", "active"]
]}

Request: Could you please tell me the result logged for COC(=O)C1=C(C(=O)OC)C(C(=O)OC)C(C(=O)OC)=C1C(=O)OC in this assay?
Response: inactive

Request: Param item: COc1cccc2c1CCc1ccccc1CC2=O
Response: inactive

Request: Param item: Cn1c(N/N=C/c2ccc(Cl)cc2)nc(-c2ccc(Cl)cc2)c(C#N)c1=O
Response: inactive

Request: Param item: CCCCC(=O)NC1(c2cc3ccccc3s2)CCCCC1
Response: inactive

Request: Param item: CCCCCOC(=O)C(=O)Nc1[nH]nnc1C(N)=O
Response: inactive

Request: Param item: Cc1ccc(S(=O)(=O)NC(=O)Nc2c(S(N)(=O)=O)cc(S(N)(=O)=O)c(Cl)c2Cl)cc1
Response: inactive

Request: Param item: COC1=CC(=O)[C@]2(C)[C@H](C1=O)C(C)[C@H]2c1ccc(OC)cc1 (some centres undefined)
Response: inactive

Request: Param item: O=c1[nH]/c(=C/c2ccc(OCc3ccccc3)cn2)c(=O)[nH]/c1=C/c1ccccc1
Response: active

Request: Param item: O=C1OC(=O)C2C1C1(c3ccccc3)OC2(c2ccccc2)c2c(Br)c(Br)c(Br)c(Br)c21 (centres undefined)
Response: inactive

Request: Param item: Cc1cc2c(cc1Cl)SC(NNC1=NCCN1)=NS2(=O)=O
Response: inactive

Request: Param item: O=C1c2ccccc2C2(O)Nc3cc(O)ccc3C12O (centres undefined)
Response: inactive

Request: Param item: O=C(O)c1nc2cc(C(F)(F)F)ccc2nc1Nc1ccc(F)cc1
Response: inactive

* * *

System: SF-295
Assay: NCI tumour cell line growth inhibition, 48 h
Active and inactive are the calls of the source. Rule as the data show it: active = GI50 up to about 1.1 µM and inactive = higher.
MEASURED_QUANTITY: GI50

{"columns": ["MOLECULE", "GI50"],
 "data": [
  ["N#CCCN(CCC#N)c1ccc(/C=C2\\N=C(c3cc([N+](=O)[O-])ccc3Cl)N(S(=O)(=O)c3ccccc3)C2=O)cc1", "> 100 µM (inactive)"]
]}

Request: Identify the measured GI50 of O=C1OC(c2ccccc2)=N/C1=C/NC(CO)C(=O)O (stereo not given) for SF-295.
Response: > 100 µM (inactive)

Request: Param item: CNC(=S)N/N=C(/C)CCC/C(C)=N/NC(=S)NC
Response: > 100 µM (inactive)

Request: Param item: C[Si](C)(C)/C=C/CCC(C=O)(CCCl)c1ccccc1 (stereo not given)
Response: 21.1 µM (inactive)

Request: Param item: CSc1c(C(=O)Nc2ccc(Cl)cc2)c(N)nn1-c1ccccc1
Response: > 100 µM (inactive)

Request: Param item: C1=CC2C(C3CN(c4ccccc4)N=C13)C1C3C4C=CC21C=CC43 (stereo not given)
Response: > 100 µM (inactive)

Request: Param item: COc1cc(C2SCC(=O)N2Cc2ccccc2)cc(OC)c1OC (stereo not given)
Response: > 100 µM (inactive)

Request: Param item: CC(=O)N(CN1C(=O)CCC1C(=O)O)c1ccc(C)cc1 (stereo not given)
Response: > 100 µM (inactive)

Request: Param item: Cc1ccc(NC(=O)/C(=N\NC(N)=S)C(C#N)c2ccccc2C)cc1C (stereo not given)
Response: > 100 µM (inactive)

Request: Param item: CCCC(=O)Nc1cc(/C=C/C(=O)N2CC(CCl)c3c2cc([N+](=O)[O-])c2ccccc32)n(C)c1 (stereo not given)
Response: > 52.1 µM (inactive)

Request: Param item: COc1ccccc1NC(=O)C1=C(C)NC(C)=C(C(=O)Nc2ccccc2OC)C1c1ccc(C)cc1
Response: 68.4 µM (inactive)

Request: Param item: CC(C)(C)C(=O)CC1=Nc2ccccc2SC1(O)CC(=O)C(C)(C)C (stereo not given)
Response: 24.8 µM (inactive)

Request: Param item: COc1cc(C2C(Cl)C(=O)N2NC(=O)c2ccc(NC(C)=O)cc2)cc(OC)c1OC (stereo not given)
Response: > 100 µM (inactive)

Request: Param item: [N-]=[N+]=Nc1c([N+](=O)[O-])c(=O)n2c3c(cccc13)CCC2
Response: > 65.5 µM (inactive)

Request: Param item: OC1(c2ccccc2)CC2CCC(C1)N2CCCC(O)(c1ccccc1)c1ccccc1 (stereo not given)
Response: 3.33 µM (inactive)

Request: Param item: O=C(Nn1c(-c2ccccc2)nc2ccccc2c1=O)c1ccc(Cl)cc1
Response: > 100 µM (inactive)

Request: Param item: Nc1nc(O)c2[nH]nnc2n1 [8-AZAGUANINE]
Response: 3.11 µM (inactive)

Request: Param item: COc1ccc2[nH]c3c(c2c1)CCN(C)CC3
Response: > 100 µM (inactive)

Request: Param item: Cc1ncc([N+](=O)[O-])n1CCNC(=O)CCCCn1ccnc1[N+](=O)[O-]
Response: > 100 µM (inactive)

Request: Param item: C/N=C(\NC(=S)N(C)C)N(C)C
Response: > 100 µM (inactive)
